Target: T1, human TIGIT-His protein (human, UniProt Q495A1 22-141)
T1 construct: Recombinant protein; also called human TIGIT-his tag; hTIGIT-His
T1 sequence (looked up): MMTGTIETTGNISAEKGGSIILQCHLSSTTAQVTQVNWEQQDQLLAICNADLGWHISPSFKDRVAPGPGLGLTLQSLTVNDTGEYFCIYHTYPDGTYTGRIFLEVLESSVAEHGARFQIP
Experiment: SPR (Biacore) affinity ranking, human TIGIT-His
The following binders are listed with their measured koff values.
observable: koff

>>> experimentalvalue("76D12B10-Hu04 (antibody, V domains shown, Humanized, VH.V4 + VK.V0) VH: EVQLQESGPGLVKPSETLSLTCAASGYSITSGYDWHWIRQPPGKGLEWMGFIRDSGSTVYNPSLKGRITISHDTSKNQFSLKLSSVTAADTAVYYCARGLFWYFDVWGQGTTVTVSS VL: DIQMTQSPSSLSASVGDRVTITCRTSENIFSYLAWYQQKPGKVPKLLIYNTKTLAEGVPSRFSGSGSGTDFTLTISSLQPEDVATYYCQHHYGNPLTFGQGTKLEIK")
"9.85e-05 s⁻¹"
>>> experimentalvalue("76D12B10-Hu06 (antibody, V domains shown, Humanized, VH.V1 + VK.V1) VH: EVQLQESGPGLVKPSETLSLTCAVSGYSISSGYDWHWIRQPPGKGLEWIGFIRDSGSTVYNPSLKGRVTISHDTSKNQFSLKLSSVTAADTAVYYCARGLFWYFDVWGQGTTVTVSS VL: DIQMTQSPSSLSASVGDRVTITCRTSENIFSYLAWYQQKPGKVPKLLIHNTKTLAEGVPSRFSGSGSGTDFTLTISSLQPEDVATYYCQHHYGNPLTFGQGTKLEIK")
"0.000101 s⁻¹"
>>> experimentalvalue("76D12B10-Hu15 (antibody, V domains shown, Humanized, VH.V5 + VK.V2) VH: EVQLQESGPGLVKPSETLSLTCAASGYSITSGYDWHWIRQPPGKKLEWMGFIRDSGSTVYNPSLKGRITISHDTSKNQFSLKLSSVTAADTAVYFCARGLFWYFDVWGQGTTVTVSS VL: DIQMTQSPSSLSASVGDRVTITCRTSENIFSYLAWYQQKPGKVPKLLVHNTKTLAEGVPSRFSGSGSGTDFTLTISSLQPEDVATYYCQHHYGNPLTFGQGTKLEIK")
"0.000105 s⁻¹"
>>> experimentalvalue("76D12B10 chimeric antibody (antibody, V domains shown, Mouse variable regions of hybridoma clone 76D12B10; tested as chimeric mAb (detected with anti-human IgG); also called 76D12B10-Chimera; 76D12B10 chimera) VH: DVQLQESGPGMVKPSQSLSLTCTATGYSITSGYDWHWIRHFPGKKLEWMGFIRDSGSTVYNPSLKGRISITHDTSKNRFFLKLNSVTPEDTATYFCARGLFWYFDVWGTGTTVTVSS VL: DIQMTQSPASLSASVGETVTITCRTSENIFSYLAWYQQKQGNSPQLLVHNTKTLAEGVPSRFSGSGSGTQFSLKISNLQPEDFGSYYCQHHYGNPLTFGAGTKLELK")
"0.000182 s⁻¹"
>>> experimentalvalue("76D12B10-Hu10 (antibody, V domains shown, Humanized, VH.V5 + VK.V1) VH: EVQLQESGPGLVKPSETLSLTCAASGYSITSGYDWHWIRQPPGKKLEWMGFIRDSGSTVYNPSLKGRITISHDTSKNQFSLKLSSVTAADTAVYFCARGLFWYFDVWGQGTTVTVSS VL: DIQMTQSPSSLSASVGDRVTITCRTSENIFSYLAWYQQKPGKVPKLLIHNTKTLAEGVPSRFSGSGSGTDFTLTISSLQPEDVATYYCQHHYGNPLTFGQGTKLEIK")
"9.79e-05 s⁻¹"
>>> experimentalvalue("76D12B10-Hu08 (antibody, V domains shown, Humanized, VH.V3 + VK.V1) VH: EVQLQESGPGLVKPSETLSLTCAVSGYSISSGYDWHWIRQPPGKGLEWMGFIRDSGSTVYNPSLKGRITISHDTSKNQFSLKLSSVTAADTAVYYCARGLFWYFDVWGQGTTVTVSS VL: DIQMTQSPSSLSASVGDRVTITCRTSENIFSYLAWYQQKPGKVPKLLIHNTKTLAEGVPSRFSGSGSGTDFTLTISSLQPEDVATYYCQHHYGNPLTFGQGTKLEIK")
"9.73e-05 s⁻¹"
